# Test system: 598228-144-R-J1-PDC complex spheroid viability;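 note: spheroids exposed to the agents for one week before reading; percent of vehicle DMSO control viability so 100% = untreated growth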
# protocolDescription: Anticancer human tumor 598228-144-R-J1-PDC patient-derived serous endometrial adenocarcinoma cell line growth inhibition [GQUAD]; active = viability on the fitted dose curve at most 10% of control; inactive = the rest
# conditionDetails: second compound 0.0316 µM; first compound 10 µM
Outcomes: 1 = active, -1 = inactive

compound | categoryLabel
CC(C)(O)C1CCC(Nc2ccc3ncc(-c4cccc(C(F)(F)F)c4)n3n2)CC1 (stereo not given) + Cc1[nH]c2ccc(F)cc2c1-c1nc2c3cccnc3c3ncccc3c2[nH]1 | -1
COc1cccc2c1C(=O)c1c(O)c3c(c(O)c1C2=O)CC(O)(C(=O)CO)CC3OC1CC(N)C(O)C(C)O1 (stereo not given) + Cc1cnc(CNC(=O)c2c(=O)c3ccc(N4CCCN(C)CC4)nc3n3c2sc2ccccc23)cn1 | 1
C=CCn1c(=O)c2cnc(Nc3ccc(N4CCN(C)CC4)cc3)nc2n1-c1cccc(C(C)(C)O)n1 + Cc1cnc(CNC(=O)c2c(=O)c3ccc(N4CCCN(C)CC4)nc3n3c2sc2ccccc23)cn1 | -1
COc1cccc2c1C(=O)c1c(O)c3c(c(O)c1C2=O)CC(O)(C(=O)CO)CC3OC1CC(N)C(O)C(C)O1 (stereo not given) + Cc1[nH]c2ccc(F)cc2c1-c1nc2c3cccnc3c3ncccc3c2[nH]1 | 1
O=c1[nH]cc(F)c(=O)[nH]1 + Cc1cnc(CNC(=O)c2c(=O)c3ccc(N4CCCN(C)CC4)nc3n3c2sc2ccccc23)cn1 | -1

Data provenance: PubChem BioAssay AID2060506
